Exercise: state measured ED50 for each of the molecules provided.
Tested on: Rattus norvegicus
experiment_notes: Compound was evaluated for the antagonist activity (ED50) against gastrin-induced acid secretion in the anesthetized rat.
Format: functional
// units = mg/kg; emit number, no label

-- ask Suppose we examine the molecule CC(C)C[C@H](NC(=O)[C@H](Cc1c[nH]c2ccccc12)NC(=O)OC(C)(C)C)C(=O)N[C@@H](CC(=O)O)C(=O)OCCc1ccccc1C(F)(F)F ; what ED50 value has been reported?
-- reply 1.5

-- ask Another molecule to check: CC(C)C[C@H](NC(=O)[C@@H](Cc1c[nH]c2ccccc12)NC(=O)CCNC(=O)OC(C)(C)C)C(=O)N[C@H](CC(=O)O)C(=O)OCCc1ccccc1
-- reply 0.04

-- ask Another molecule to check: CC(C)C[C@H](NC[C@H](Cc1c[nH]c2ccccc12)NC(=O)OC(C)(C)C)C(=O)N[C@@H](CC(=O)O)C(=O)OCCc1ccccc1
-- reply 1

-- ask Another molecule to check: CC(C)C[C@H](NC(=O)[C@H](Cc1c[nH]c2ccccc12)NC(=O)OC(C)(C)C)C(=O)N[C@@H](CC(=O)O)C(=O)OCCc1ccccc1F
-- reply 0.1

-- ask Another molecule to check: CC(C)C[C@H](NC(=O)[C@H](Cc1c[nH]c2ccccc12)NC(=O)CCNC(=O)OC(C)(C)C)C(=O)N[C@H](CC(=O)O)C(=O)OCCc1ccccc1
-- reply 0.08

-- ask Another molecule to check: CC(C)C[C@H](NC[C@H](Cc1c[nH]c2ccccc12)NC(=O)OC(C)(C)C)C(=O)N[C@@H](CC(=O)O)C(=O)OCCc1ccc(F)cc1
-- reply 0.1

-- ask Another molecule to check: CC(C)C[C@H](NC(=O)[C@H](Cc1c[nH]c2ccccc12)NC(=O)OC(C)(C)C)C(=O)N[C@@H](CC(=O)O)C(=O)OCCc1ccccc1
-- reply 0.1

-- ask Another molecule to check: CC(C)C[C@H](NC(=O)[C@H](Cc1c[nH]c2ccccc12)NC(=O)CCNC(=O)OC(C)(C)C)C(=O)N[C@@H](CC(=O)O)C(=O)OCCc1ccc(F)cc1
-- reply 0.02

-- ask Another molecule to check: CC(C)C[C@H](NC(=O)[C@H](Cc1c[nH]c2ccccc12)NC(=O)OC(C)(C)C)C(=O)N[C@@H](CC(=O)O)C(=O)OCCc1ccc(F)cc1
-- reply 0.08

-- ask Another molecule to check: CC(C)C[C@H](NC(=O)[C@@H](Cc1c[nH]c2ccccc12)NC(=O)OC(C)(C)C)C(=O)N[C@@H](CC(=O)O)C(=O)OCCc1ccccc1
-- reply 0.8
